Source of measurements: patent US20250215030A1

Biological target: Recombinant STAT6 protein (STAT6(W123-T658)) (Homo sapiens, UniProt P42226)
Construct: STAT6(W123-T658)
Sequence (P42226 123-658, species assumed): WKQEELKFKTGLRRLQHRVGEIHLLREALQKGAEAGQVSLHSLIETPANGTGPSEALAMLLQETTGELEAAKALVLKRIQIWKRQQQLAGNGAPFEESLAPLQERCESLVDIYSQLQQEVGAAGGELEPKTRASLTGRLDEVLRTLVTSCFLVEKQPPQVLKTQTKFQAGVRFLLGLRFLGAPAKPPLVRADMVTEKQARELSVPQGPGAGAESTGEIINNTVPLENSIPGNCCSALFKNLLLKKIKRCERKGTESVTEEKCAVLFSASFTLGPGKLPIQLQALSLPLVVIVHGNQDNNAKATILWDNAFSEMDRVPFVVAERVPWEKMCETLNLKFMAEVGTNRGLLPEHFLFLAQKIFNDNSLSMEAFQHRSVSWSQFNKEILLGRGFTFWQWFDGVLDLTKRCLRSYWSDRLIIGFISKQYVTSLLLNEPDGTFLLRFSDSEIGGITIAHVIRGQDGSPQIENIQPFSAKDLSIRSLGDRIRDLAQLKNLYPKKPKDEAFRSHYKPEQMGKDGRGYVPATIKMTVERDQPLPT
Test: STAT6 Fluorescence Polarization (FP) Assay
Details: STAT6(W123-T658) 250 nM, probe 5-FAM-ApYKPFQDLI-NH2 2 nM, 45-minute incubation
reported property: IC50

As a guide, the following entries are already answered.
{"columns": ["molecule", "target or test system", "result"],
 "data": [
  ["COCC1(c2ccccc2)CN(C(=O)[C@@H]2CC[C@@H]3C[C@@H]4C[C@@H]4C[C@H](NC(=O)c4cc5cc(C(F)(F)P(=O)(O)O)ccc5s4)C(=O)N32)C1 [Compound 84]", "Recombinant STAT6 protein (STAT6(W123-T658)) (Homo sapiens, UniProt P42226)", "3 to 30 µM"],
  ["COc1ccncc1C1CN(C(=O)[C@@H]2CC[C@@H]3C[C@@H]4C[C@@H]4C[C@H](NC(=O)c4cc5cc([C@@H](F)P(=O)(O)O)ccc5s4)C(=O)N32)C1 (single isomer, unassigned) [Example 354]", "Recombinant STAT6 protein (STAT6(W123-T658)) (Homo sapiens, UniProt P42226)", "> 30 µM"],
  ["O=C(N[C@H]1C[C@@H]2C[C@@H]2C[C@H]2CC[C@@H](C(=O)N3CCC34CCCCC4)N2C1=O)c1cc2cc(C(F)P(=O)(O)O)ccc2s1 (stereo partly shown) [Example 388]", "Recombinant STAT6 protein (STAT6(W123-T658)) (Homo sapiens, UniProt P42226)", "3 to 30 µM"],
  ["COC1(c2nccn2C)CN(C(=O)[C@@H]2CC[C@@H]3C[C@@H]4[C@H](C[C@H](NC(=O)c5cc6cc(C(F)(F)P(=O)(O)O)ccc6s5)C(=O)N32)C4(F)F)C1 [Compound 29]", "Recombinant STAT6 protein (STAT6(W123-T658)) (Homo sapiens, UniProt P42226)", "3 to 30 µM"]
]}

Prompt: # query: IC50 of entry COc1ccncc1C1CN(C(=O)[C@@H]2CC[C@@H]3C[C@@H]4C[C@@H]4C[C@H](NC(=O)c4cc5cc([C@H](F)P(=O)(O)O)ccc5s4)C(=O)N32)C1 (single isomer, unassigned) [Example 353]
Completion: 3 to 30 µM

Prompt: # query: IC50 of entry O=C(N[C@H]1C[C@H]2C[C@H]2C[C@H]2CC[C@@H](C(=O)N3CCN(C4CCOCC4)CC3)N2C1=O)c1cc2cc(C(F)(F)P(=O)(O)O)ccc2s1 [Compound 125]
Completion: 3 to 30 µM

Prompt: # query: IC50 of entry O=C(N[C@H]1C[C@@H]2C[C@@H]2C[C@H]2CC[C@@H](C(=O)N3CC(Oc4cnccn4)C3)N2C1=O)c1cc2cc(CP(=O)(O)O)ccc2s1 [Example 334]
Completion: > 30 µM

Prompt: # query: IC50 of entry CC(=O)N1CC(NC(=O)[C@@H]2CC[C@@H]3C[C@H]4C[C@H]4C[C@H](NC(=O)c4cc5cc(C(F)P(=O)(O)O)ccc5s4)C(=O)N32)C(F)(F)C1 (stereo partly shown) [Example 358]
Completion: 3 to 30 µM

Prompt: # query: IC50 of entry CCc1ccncc1C1CN(C(=O)[C@@H]2CC[C@@H]3C[C@@H]4C[C@@H]4C[C@H](NC(=O)c4cc5cc([C@H](F)P(=O)(O)O)ccc5s4)C(=O)N32)C1 (single isomer, unassigned) [Example 345]
Completion: 3 to 30 µM

Prompt: # query: IC50 of entry Cc1ccncc1C1CN(C(=O)[C@@H]2CC[C@@H]3C[C@H]4C[C@H]4C[C@H](NC(=O)c4cc5cc(C(F)P(=O)(O)O)ccc5s4)C(=O)N32)C1 (stereo partly shown) [Example 280]
Completion: 3 to 30 µM

###

Molecular target: Recombinant STAT3 protein (STAT3(G127-I722)) (Homo sapiens, UniProt P40763)
Construct: STAT3(G127-I722)
Sequence (P40763 127-722, species assumed): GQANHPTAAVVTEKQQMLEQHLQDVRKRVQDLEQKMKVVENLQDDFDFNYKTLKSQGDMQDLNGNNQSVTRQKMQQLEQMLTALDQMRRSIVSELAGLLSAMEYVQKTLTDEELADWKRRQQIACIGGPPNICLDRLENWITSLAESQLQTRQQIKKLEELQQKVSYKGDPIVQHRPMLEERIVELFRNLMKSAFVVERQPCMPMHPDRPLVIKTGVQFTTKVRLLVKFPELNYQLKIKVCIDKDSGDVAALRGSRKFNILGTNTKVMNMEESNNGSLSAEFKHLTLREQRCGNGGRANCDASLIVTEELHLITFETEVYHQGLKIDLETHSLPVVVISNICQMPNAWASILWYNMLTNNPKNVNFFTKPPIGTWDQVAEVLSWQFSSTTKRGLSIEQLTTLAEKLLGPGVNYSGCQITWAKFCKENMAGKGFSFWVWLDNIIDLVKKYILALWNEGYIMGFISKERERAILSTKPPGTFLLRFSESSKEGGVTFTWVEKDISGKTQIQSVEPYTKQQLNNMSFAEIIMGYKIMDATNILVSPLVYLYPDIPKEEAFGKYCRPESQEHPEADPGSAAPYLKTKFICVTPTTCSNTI
Assay: STAT3 Fluorescence Polarization (FP) Assay
Conditions: STAT3(G127-I722) 25 nM, probe 5-FAM-GpYLPQTV-NH2 2 nM, 45-minute incubation
pIC50: −log10 of the molar value.
Documented pIC50 across a set of molecules

Prompt: Form field - read-out: pIC50; system: Recombinant STAT3 protein (STAT3(G127-I722)) (Homo sapiens, UniProt P40763); submitted item: NC(=O)N1C[C@H](NC(=O)[C@@H]2CC[C@@H]3C[C@H]4C[C@H]4C[C@H](NC(=O)c4cc5cc(C(F)P(=O)(O)O)ccc5s4)C(=O)N32)C(F)(F)C1 (some centres unmarked)
Completion: > 7.00

Prompt: Form field - read-out: pIC50; system: Recombinant STAT3 protein (STAT3(G127-I722)) (Homo sapiens, UniProt P40763); submitted item: O=C(N[C@H]1C[C@H]2C[C@H]2C[C@H]2CC[C@@H](C(=O)N3CC(c4ccon4)C3)N2C1=O)c1cc2cc([C@H](F)P(=O)(O)O)ccc2s1 (single isomer, unassigned)
Completion: > 7.00

Prompt: Form field - read-out: pIC50; system: Recombinant STAT3 protein (STAT3(G127-I722)) (Homo sapiens, UniProt P40763); submitted item: `N#CC1(c2ccccn2)CN(C(=O)[C@@H]2CC[C@@H]3C[C@@H]4C[C@@H]4C[C@H](NC(=O)c4cc5cc(C(F)(F)P(=O)(O)O)ccc5s4)C(=O)N32)C1`
Completion: > 7.00

Prompt: Form field - read-out: pIC50; system: Recombinant STAT3 protein (STAT3(G127-I722)) (Homo sapiens, UniProt P40763); submitted item: COC[C@@H]1CCN1c1ccncc1C1CN(C(=O)[C@@H]2CC[C@@H]3C[C@H]4C[C@H]4C[C@H](NC(=O)c4cc5cc([C@@H](F)P(=O)(O)O)ccc5s4)C(=O)N32)C1 (single isomer, unassigned)
Completion: 5.00 to 6.00

Prompt: Form field - read-out: pIC50; system: Recombinant STAT3 protein (STAT3(G127-I722)) (Homo sapiens, UniProt P40763); submitted item: `N#CC1CN(c2ccncc2C2CN(C(=O)[C@@H]3CC[C@@H]4C[C@H]5C[C@H]5C[C@H](NC(=O)c5cc6cc([C@@H](F)P(=O)(O)O)ccc6s5)C(=O)N43)C2)C1`
Completion: > 7.00

###

Biological target: Recombinant STAT6 protein (STAT6(W123-T658)) (Homo sapiens)
Construct: STAT6(W123-T658)
Test: STAT6 Fluorescence Polarization (FP) Assay
Settings: STAT6(W123-T658) 250 nM, probe 5-FAM-ApYKPFQDLI-NH2 2 nM, 45-minute incubation
pIC50: −log10 of the molar value.
reported property: pIC50

{"columns": ["molecule", "target or test system", "pIC50"],
 "data": [
  ["O=C(N[C@H]1C[C@@H]2C[C@@H]2C[C@H]2CC[C@@H](C(=O)N3CC(c4cnccc4F)C3)N2C1=O)c1cc2cc(C(F)P(=O)(O)O)ccc2s1 (some centres unmarked) [Example 262]", "Recombinant STAT6 protein (STAT6(W123-T658)) (Homo sapiens)", "5.52 to 6.52"],
  ["Cn1ccnc1N1C[C@H](NC(=O)[C@@H]2CC[C@@H]3C[C@H]4C[C@H]4C[C@H](NC(=O)c4cc5cc(C(F)P(=O)(O)O)ccc5s4)C(=O)N32)[C@@H](F)C1 (some centres unmarked) [Example 367]", "Recombinant STAT6 protein (STAT6(W123-T658)) (Homo sapiens)", "4.52 to 5.52"],
  ["O=C(N[C@H]1C[C@H]2C[C@H]2C[C@H]2CC[C@@H](C(=O)N[C@H]3CN(c4cccnc4)C[C@H]3F)N2C1=O)c1cc2cc(C(F)(F)P(=O)(O)O)ccc2s1 [Compound 129]", "Recombinant STAT6 protein (STAT6(W123-T658)) (Homo sapiens)", "4.52 to 5.52"],
  ["Cc1ccncc1N1C[C@H](NC(=O)[C@@H]2CC[C@@H]3C[C@H]4C[C@H]4C[C@H](NC(=O)c4cc5cc(CP(=O)(O)O)ccc5s4)C(=O)N32)[C@@H](F)C1 [Example 278]", "Recombinant STAT6 protein (STAT6(W123-T658)) (Homo sapiens)", "< 4.52"],
  ["O=C(N[C@H]1C[C@@H]2C[C@@H]2C[C@H]2CC[C@@H](C(=O)N3CCN(C(=O)c4cn[nH]c4)CC3)N2C1=O)c1cc2cc(C(F)(F)P(=O)(O)O)ccc2s1 [Compound 104]", "Recombinant STAT6 protein (STAT6(W123-T658)) (Homo sapiens)", "5.52 to 6.52"],
  ["N#CC1(c2ccccn2)CN(C(=O)[C@@H]2CC[C@@H]3C[C@@H]4C[C@@H]4C[C@H](NC(=O)c4cc5cc([C@H](F)P(=O)(O)O)ccc5s4)C(=O)N32)C1 (single isomer, unassigned) [Example 355]", "Recombinant STAT6 protein (STAT6(W123-T658)) (Homo sapiens)", "5.52 to 6.52"],
  ["N#CC1(c2ccccn2)CN(C(=O)[C@@H]2CC[C@@H]3C[C@H]4C[C@H]4C[C@H](NC(=O)c4cc5cc(C(F)(F)P(=O)(O)O)ccc5s4)C(=O)N32)C1 [Compound 89]", "Recombinant STAT6 protein (STAT6(W123-T658)) (Homo sapiens)", "5.52 to 6.52"],
  ["CC(=O)N1C[C@@H](F)[C@@H](NC(=O)[C@@H]2CC[C@@H]3C[C@@H]4C[C@@H]4C[C@H](NC(=O)c4cc5cc(C(F)(F)P(=O)(O)O)ccc5s4)C(=O)N32)C1 [Compound 127]", "Recombinant STAT6 protein (STAT6(W123-T658)) (Homo sapiens)", "4.52 to 5.52"],
  ["COC1CN(C(=O)C2CN(C(=O)[C@@H]3CC[C@@H]4C[C@H]5C[C@H]5C[C@H](NC(=O)c5cc6cc(C(F)(F)P(=O)(O)O)ccc6s5)C(=O)N43)C2)C1 [Compound 102]", "Recombinant STAT6 protein (STAT6(W123-T658)) (Homo sapiens)", "4.52 to 5.52"],
  ["O=C(N[C@H]1C[C@@H]2C[C@@H]2C[C@H]2CC[C@@H](C(=O)N[C@@H]3CCN(C4COC4)C3)N2C1=O)c1cc2cc(C(F)(F)P(=O)(O)O)ccc2s1 [Compound 48]", "Recombinant STAT6 protein (STAT6(W123-T658)) (Homo sapiens)", "4.52 to 5.52"]
]}

Prompt: Form field - read-out: pIC50; system: Recombinant STAT6 protein (STAT6(W123-T658)) (Homo sapiens); submitted item: O=C(N[C@H]1C[C@H]2C[C@H]2C[C@H]2CC[C@@H](C(=O)N3CC(c4c[nH]cn4)C3)N2C1=O)c1cc2cc(C(F)(F)P(=O)(O)O)ccc2s1 [Compound 54]
Completion: 5.52 to 6.52

Prompt: Form field - read-out: pIC50; system: Recombinant STAT6 protein (STAT6(W123-T658)) (Homo sapiens); submitted item: O=C(N[C@H]1C[C@@H]2C[C@@H]2C[C@H]2CC[C@@H](C(=O)N3CC(c4cnccc4N4CCC4)C3)N2C1=O)c1cc2cc([C@@H](F)P(=O)(O)O)ccc2s1 [Example 421]
Completion: 4.52 to 5.52
